System: TNFα secretion from LPS stimulated white blood cells from human buffy coat
Experiment: TNFα secretion assay, LPS stimulation
Condition Notes: Homo sapiens, read-out: TNFα LPS percent inhibition, 0.03 μM
I'd appreciate it if you could supply inhibition at 0.03 µM values for the items below.
Provide the reading as a plain figure in %.

Request: Please look at this compound and report its inhibition at 0.03 µM: `CNCC[C@@H](Oc1ccccc1C)c1ccccc1`
Response: 0

Request: Please look at this compound and report its inhibition at 0.03 µM: `CN(C)CCCN1c2ccccc2CCc2ccccc21`
Response: 0

Request: Please look at this compound and report its inhibition at 0.03 µM: CC(CN(C)C)CN1c2ccccc2CCc2ccccc21 (stereo not drawn)
Response: 1

Request: Please look at this compound and report its inhibition at 0.03 µM: `CNCCCN1c2ccccc2CCc2ccccc21`
Response: 0

Request: Please look at this compound and report its inhibition at 0.03 µM: `CN(C)CCC=C1c2ccccc2CCc2ccccc21`
Response: 0

Request: Please look at this compound and report its inhibition at 0.03 µM: CN(C)CCC=C1c2ccccc2COc2ccccc21 [Doxepin, doxepin]
Response: 0

---

Tested on: TNFα secretion from LPS stimulated white blood cells from human buffy coat
Experiment: TNFα secretion assay, LPS stimulation
Condition Notes: Homo sapiens, read-out: TNFα LPS percent inhibition, 0.06 μM
Measurement Kind: inhibition at 0.06 µM (%)
Provide the reading as a plain figure in %.

Request: Please look at this compound and report its inhibition at 0.06 µM: CC(CN(C)C)CN1c2ccccc2CCc2ccccc21 (centres unmarked)
Response: 3

Request: Please look at this compound and report its inhibition at 0.06 µM: CN(C)CCC=C1c2ccccc2COc2ccccc21 [Doxepin, doxepin]
Response: 5

Request: Please look at this compound and report its inhibition at 0.06 µM: `CN(C)CCCN1c2ccccc2CCc2ccccc21`
Response: 10

Request: Please look at this compound and report its inhibition at 0.06 µM: `CN(C)CCC=C1c2ccccc2CCc2ccccc21`
Response: 0

Request: Please look at this compound and report its inhibition at 0.06 µM: `CNCCCN1c2ccccc2CCc2ccccc21`
Response: 0
